The measured values listed here are drawn from PubChem BioAssay AID651576.

system: HCV core protein (core106) dimerization, Hepatitis C virus; assay: HCV core106 dimerization inhibitors, late-stage follow-up, biochemical, AlphaScreen luminescence, single dose 15 µM, powder samples (AID 651576); settings: AlphaScreen GST/Flag-core106 dimerization, at 15 µM
Calls of active or inactive are those of the source.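 The calls were made as follows: active = inhibition of at least 50%, averaged over three replicate wells; inactive = inhibition below 50%.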
Labels: class 1 for active, class 0 for inactive

# COMPOUND, SYSTEM_NAME, CLASS_NAME
rows = [
    ("CCCNC(=O)CSc1nc2nc(C)c(Cc3cccc(C)c3)c(C)n2n1", "HCV core protein (core106) dimerization, Hepatitis C virus", "class 0"),
    ("Cc1ccc(Cc2c(C)nc3nc(SCC(=O)NCCN4CCCCC4)nn3c2C)cc1", "HCV core protein (core106) dimerization, Hepatitis C virus", "class 1"),
    ("Cc1ccc(Cc2c(C)nc3nc(SCC(=O)NCCc4ccccc4)nn3c2C)cc1", "HCV core protein (core106) dimerization, Hepatitis C virus", "class 0"),
    ("Cc1ccc(Cc2c(C)nc3nc(SCC(=O)NCCN4CCCN(S(=O)(=O)c5ccc(C)cc5)CC4)nn3c2C)cc1", "HCV core protein (core106) dimerization, Hepatitis C virus", "class 1"),
    ("Cc1ccc(Cc2c(C)nc3nc(SCC(=O)NCCN4CCN(CCc5ccccc5)CC4)nn3c2C)cc1", "HCV core protein (core106) dimerization, Hepatitis C virus", "class 1"),
    ("Cc1ccc(Cc2c(C)nc3nc(SCC(=O)N4CCN(Cc5ccc(Cl)cc5)CC4)nn3c2C)cc1", "HCV core protein (core106) dimerization, Hepatitis C virus", "class 0"),
    ("C=CCN1CCN(CCNC(=O)CSc2nc3nc(C)c(Cc4ccc(C)cc4)c(C)n3n2)CC1", "HCV core protein (core106) dimerization, Hepatitis C virus", "class 0"),
    ("Cc1ccc(Cc2c(C)nc3nc(SCC(=O)NCC4CCCCN4C(=O)CSc4nc5nc(C)c(Cc6ccc(C)cc6)c(C)n5n4)nn3c2C)cc1 (stereo not given)", "HCV core protein (core106) dimerization, Hepatitis C virus", "class 1"),
    ("Cc1ccc(Cc2c(C)nc3nc(SCC(=O)NCCCCCNC(=O)CSc4nc5nc(C)c(Cc6ccc(C)cc6)c(C)n5n4)nn3c2C)cc1", "HCV core protein (core106) dimerization, Hepatitis C virus", "class 1"),
    ("Cc1ccc(Cc2c(C)nc3nc(SCC(=O)NC4CCN(C(=O)CSc5nc6nc(C)c(Cc7ccc(C)cc7)c(C)n6n5)CC4)nn3c2C)cc1", "HCV core protein (core106) dimerization, Hepatitis C virus", "class 1"),
]

###

system: HCV core protein (core106) dimerization, Hepatitis C virus; assay: HCV core106 dimerization inhibitors, late-stage follow-up, biochemical, AlphaScreen luminescence, single dose 15 µM, powder samples (AID 651576); settings: AlphaScreen GST/Flag-core106 dimerization, at 15 µM
Active and inactive are the calls of the source.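 Rule for the calls: active = inhibition of at least 50%, averaged over three replicate wells; inactive = inhibition below 50%.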
Outcomes: active, inactive

# MOL, CLASS_NAME
rows = [
    ("Cc1ccc(Cc2c(C)nc3nc(SCC(=O)Nc4ccccc4NC(=O)CSc4nc5nc(C)c(Cc6ccc(C)cc6)c(C)n5n4)nn3c2C)cc1", "active"),
    ("Cc1nc2nc(SCC(=O)NCCN3CCOCC3)nn2c(C)c1Cc1ccncc1", "inactive"),
    ("Cc1ccc(Cc2c(CCc3ccccc3)nc3nc(SCC(=O)NCCN4CCOCC4)nn3c2C)cc1", "inactive"),
    ("Cc1ccc(Cc2c(C)nc3nc(SCC(=O)NCCCCCCNC(=O)CSc4nc5nc(C)c(Cc6ccc(C)cc6)c(C)n5n4)nn3c2C)cc1", "active"),
    ("Cc1ccc(Cc2c(C)nc3nc(SCC(=O)NCCN4CCCN(C(=O)c5ccccc5)CC4)nn3c2C)cc1", "inactive"),
    ("Cc1ccc(Cc2c(C)nc3nc(SCC(=O)N4CCN(Cc5ccc(Br)cc5)CC4)nn3c2C)cc1", "inactive"),
    ("Cc1ccc(Cc2c(C)nc3nc(SCC(=O)NCCN4CCN(Cc5ccc(F)cc5)CC4)nn3c2C)cc1", "active"),
    ("Cc1ccc(Cc2c(C)nc3nc(SCC(=O)NCCN4CCN(C(=O)c5ccc(F)cc5)CC4)nn3c2C)cc1", "inactive"),
    ("Cc1ccc(Cc2c(C)nc3nc(SCC(=O)NCCN4CCN(C(=O)OC(C)(C)C)CC4)nn3c2C)cc1", "active"),
    ("CCCNC(=O)CSc1nc2nc(C)c(Cc3ccc(C)cc3)c(C)n2n1", "inactive"),
    ("Cc1ccc(Cc2c(C)nc3nc(SCC(=O)N4CCCN(C(=O)CSc5nc6nc(C)c(Cc7ccc(C)cc7)c(C)n6n5)CC4)nn3c2C)cc1", "active"),
    ("Cc1ccc(Cc2c(C)nc3nc(SCC(=O)N4CCN(Cc5ccc(C)cc5)CC4)nn3c2C)cc1", "inactive"),
    ("CCN(CC)C(=O)CSc1nc2nc(C)c(Cc3ccc(C)cc3)c(C)n2n1", "inactive"),
]

###

tested on: HCV core protein (core106) dimerization, Hepatitis C virus; assay: HCV core106 dimerization inhibitors, late-stage follow-up, biochemical, AlphaScreen luminescence, single dose 15 µM, powder samples (AID 651576); conditions: AlphaScreen GST/Flag-core106 dimerization, at 15 µM
Activity calls are given as the source filed them.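 How the source made its calls: active means inhibition of at least 50%, averaged over three replicate wells; inactive means inhibition below 50%.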
Labels: active, inactive

# MOL, SYSTEM_NAME, CLASS_NAME
data = [
    ("Cc1ccc(Cc2c(C)nc3nc(SCC(=O)NCCN(C)C)nn3c2C)cc1", "HCV core protein (core106) dimerization, Hepatitis C virus", "inactive"),
    ("Cc1ccc(Cc2c(C)nc3nc(SCC(=O)NCCCNC(=O)CSc4nc5nc(C)c(Cc6ccc(C)cc6)c(C)n5n4)nn3c2C)cc1", "HCV core protein (core106) dimerization, Hepatitis C virus", "active"),
    ("CC(=O)N1CCN(CCNC(=O)CSc2nc3nc(C)c(Cc4ccc(C)cc4)c(C)n3n2)CC1", "HCV core protein (core106) dimerization, Hepatitis C virus", "inactive"),
    ("Cc1ccc(Cc2c(C)nc3nc(SCc4ccc(Cl)cc4)nn3c2C)cc1", "HCV core protein (core106) dimerization, Hepatitis C virus", "active"),
]
